Source listed as paper PMC4926433.

logP by entry:
Assay: Partition coefficient (log P) in octan-1-ol/phosphate buffer pH 7.4
Conditions: octan-1-ol / 6.6 mM phosphate buffer pH 7.4, pH 7.4
Readout: logP

1) O=C(O)CCCCCCCCCCC(=O)OC[C@H]1O[C@@H](Oc2c(-c3ccc(O)c(O)c3)oc3cc(O)cc(O)c3c2=O)[C@H](O)[C@@H](O)[C@@H]1O
0.48
2) CCCC(=O)OC[C@H]1O[C@@H](Oc2c(-c3ccc(O)c(O)c3)oc3cc(O)cc(O)c3c2=O)[C@H](O)[C@@H](O)[C@@H]1O
1.96
3) CCCCCC(=O)OC[C@H]1O[C@@H](Oc2c(-c3ccc(O)c(O)c3)oc3cc(O)cc(O)c3c2=O)[C@H](O)[C@@H](O)[C@@H]1O
2.1
4) CC(=O)OC[C@H]1O[C@@H](Oc2c(-c3ccc(O)c(O)c3)oc3cc(O)cc(O)c3c2=O)[C@H](O)[C@@H](O)[C@@H]1O
1.14
5) O=C(O)CCCCC(=O)OC[C@H]1O[C@@H](Oc2c(-c3ccc(O)c(O)c3)oc3cc(O)cc(O)c3c2=O)[C@H](O)[C@@H](O)[C@@H]1O
-1
6) O=C(O)CCCC(=O)OC[C@H]1O[C@@H](Oc2c(-c3ccc(O)c(O)c3)oc3cc(O)cc(O)c3c2=O)[C@H](O)[C@@H](O)[C@@H]1O
-1.15

---

Assay: ABTS radical cation scavenging (Antioxidant Assay Kit)
Type: biochemical
Settings: Trolox equivalents; aqueous buffer pH 5; mean ± SE
Marks after values point to notes of the source that are not given here.
ABTS (TE) by entry:
Readout: ABTS (TE)

1. C[C@@H]1O[C@@H](OC[C@H]2O[C@@H](Oc3c(-c4ccc(O)c(O)c4)oc4cc(O)cc(O)c4c3=O)[C@H](O)[C@@H](O)[C@@H]2O)[C@H](O)[C@H](O)[C@H]1O [Rutin, reference compound]
1.79 ± 0.09 TE
2. O=C(O)CCCC(=O)OC[C@H]1O[C@@H](Oc2c(-c3ccc(O)c(O)c3)oc3cc(O)cc(O)c3c2=O)[C@H](O)[C@@H](O)[C@@H]1O [Compound 9]
2.13 ± 0.08 ^i TE
3. CCCCCC(=O)OC[C@H]1O[C@@H](Oc2c(-c3ccc(O)c(O)c3)oc3cc(O)cc(O)c3c2=O)[C@H](O)[C@@H](O)[C@@H]1O [Compound 5]
2.11 ± 0.09 ^i TE

---

FCR (GAE) by entry:
Assay: Folin–Ciocalteau reduction (FCR) assay, reducing capacity
Type: biochemical
Settings: gallic acid equivalents; mean ± SE
Marks after values point to notes of the source that are not given here.
Readout: FCR (GAE)

1. CC(=O)OC[C@H]1O[C@@H](Oc2c(-c3ccc(O)c(O)c3)oc3cc(O)cc(O)c3c2=O)[C@H](O)[C@@H](O)[C@@H]1O
1.63 ± 0.07 ^b GAE
2. C[C@@H]1O[C@@H](OC[C@H]2O[C@@H](Oc3c(-c4ccc(O)c(O)c4)oc4cc(O)cc(O)c4c3=O)[C@H](O)[C@@H](O)[C@@H]2O)[C@H](O)[C@H](O)[C@H]1O [Rutin, reference compound]
2.19 ± 0.10 GAE
3. O=C(O)CCCCC(=O)OC[C@H]1O[C@@H](Oc2c(-c3ccc(O)c(O)c3)oc3cc(O)cc(O)c3c2=O)[C@H](O)[C@@H](O)[C@@H]1O
1.46 ± 0.14 ^b GAE
4. CCCCCC(=O)OC[C@H]1O[C@@H](Oc2c(-c3ccc(O)c(O)c3)oc3cc(O)cc(O)c3c2=O)[C@H](O)[C@@H](O)[C@@H]1O
1.48 ± 0.05 ^b GAE
5. CCCC(=O)OC[C@H]1O[C@@H](Oc2c(-c3ccc(O)c(O)c3)oc3cc(O)cc(O)c3c2=O)[C@H](O)[C@@H](O)[C@@H]1O
1.72 ± 0.03 ^a GAE
6. CCCCCCCC(=O)OC[C@H]1O[C@@H](Oc2c(-c3ccc(O)c(O)c3)oc3cc(O)cc(O)c3c2=O)[C@H](O)[C@@H](O)[C@@H]1O
1.47 ± 0.10 ^b GAE
7. O=C(O)CCCC(=O)OC[C@H]1O[C@@H](Oc2c(-c3ccc(O)c(O)c3)oc3cc(O)cc(O)c3c2=O)[C@H](O)[C@@H](O)[C@@H]1O
1.84 ± 0.05 ^a GAE

---

Assay: Solubility in water
Type: physicochemical
Details: pH = 6.5, isoquercitrin purity 96.5%
Description: The hydrophilicity/lipophilicity of a compound is often crucial for assessing its bioavailability. Flavonoids are generally poorly soluble in water; aqueous solubility increases at alkaline pH as phenols are weak acids. […] [15]).
Readout: solubility (mg/mL)

1. O=c1c(O[C@@H]2O[C@H](CO)[C@@H](O)[C@H](O)[C@H]2O)c(-c2ccc(O)c(O)c2)oc2cc(O)cc(O)c12 [Compound 1, quercetin-3-O-β-D-glucopyranoside, reference compound]
0.36

---

Assay: Partition coefficient (log P) in octan-1-ol/phosphate buffer pH 7.4
Details: octan-1-ol/6.6 mM phosphate buffer pH 7.4, 25 °C; mean ± SD, triplicate
Assign class by Partition Coefficient: not lower than 3 means 1; lower than 3 means -1.

1. CCCC(=O)OC[C@H]1O[C@@H](Oc2c(-c3ccc(O)c(O)c3)oc3cc(O)cc(O)c3c2=O)[C@H](O)[C@@H](O)[C@@H]1O
1
2. CC(=O)OC[C@H]1O[C@@H](Oc2c(-c3ccc(O)c(O)c3)oc3cc(O)cc(O)c3c2=O)[C@H](O)[C@@H](O)[C@@H]1O
1
3. O=C(O)CCCCC(=O)OC[C@H]1O[C@@H](Oc2c(-c3ccc(O)c(O)c3)oc3cc(O)cc(O)c3c2=O)[C@H](O)[C@@H](O)[C@@H]1O
-1
4. O=c1c(O)c(-c2ccc(O)c(O)c2)oc2cc(O)cc(O)c12 [Quercetin, quercetin, reference compound]
1
5. O=C(O)CCCC(=O)OC[C@H]1O[C@@H](Oc2c(-c3ccc(O)c(O)c3)oc3cc(O)cc(O)c3c2=O)[C@H](O)[C@@H](O)[C@@H]1O
-1
6. C[C@@H]1O[C@@H](OC[C@H]2O[C@@H](Oc3c(-c4ccc(O)c(O)c4)oc4cc(O)cc(O)c4c3=O)[C@H](O)[C@@H](O)[C@@H]2O)[C@H](O)[C@H](O)[C@H]1O [Rutin, reference compound]
-1
7. CCCCCC(=O)OC[C@H]1O[C@@H](Oc2c(-c3ccc(O)c(O)c3)oc3cc(O)cc(O)c3c2=O)[C@H](O)[C@@H](O)[C@@H]1O
1

---

ABTS (TE) by entry:
Test: ABTS radical cation scavenging (Antioxidant Assay Kit)
Format: biochemical
Settings: Trolox equivalents; aqueous buffer pH 5; mean ± SE
Marks after values point to notes of the source that are not given here.
Readout: ABTS (TE)

1) CCCC(=O)OC[C@H]1O[C@@H](Oc2c(-c3ccc(O)c(O)c3)oc3cc(O)cc(O)c3c2=O)[C@H](O)[C@@H](O)[C@@H]1O [Compound 4]
2.16 ± 0.08 ^i TE
2) CCCCCCCCCCCC(=O)OC[C@H]1O[C@@H](Oc2c(-c3ccc(O)c(O)c3)oc3cc(O)cc(O)c3c2=O)[C@H](O)[C@@H](O)[C@@H]1O [Compound 7]
1.06 ± 0.09 ^j TE
3) CC(=O)OC[C@H]1O[C@@H](Oc2c(-c3ccc(O)c(O)c3)oc3cc(O)cc(O)c3c2=O)[C@H](O)[C@@H](O)[C@@H]1O [Compound 2]
2.04 ± 0.07 ^i TE
4) O=C(O)CCCCCCCCCCC(=O)OC[C@H]1O[C@@H](Oc2c(-c3ccc(O)c(O)c3)oc3cc(O)cc(O)c3c2=O)[C@H](O)[C@@H](O)[C@@H]1O [Compound 11]
2.16 ± 0.08 ^i TE
5) O=C(O)CCCCC(=O)OC[C@H]1O[C@@H](Oc2c(-c3ccc(O)c(O)c3)oc3cc(O)cc(O)c3c2=O)[C@H](O)[C@@H](O)[C@@H]1O [Compound 10]
2.12 ± 0.10 ^i TE
6) CCCCCCCC(=O)OC[C@H]1O[C@@H](Oc2c(-c3ccc(O)c(O)c3)oc3cc(O)cc(O)c3c2=O)[C@H](O)[C@@H](O)[C@@H]1O [Compound 6]
1.28 ± 0.07 TE
